These measurements were taken from patent US11999746B2.

Target: Lp-PLA2 in human plasma (Homo sapiens, UniProt Q13093)
Construct: from tissue; host or cells: pooled human plasma
Sequence (Q13093 22-441): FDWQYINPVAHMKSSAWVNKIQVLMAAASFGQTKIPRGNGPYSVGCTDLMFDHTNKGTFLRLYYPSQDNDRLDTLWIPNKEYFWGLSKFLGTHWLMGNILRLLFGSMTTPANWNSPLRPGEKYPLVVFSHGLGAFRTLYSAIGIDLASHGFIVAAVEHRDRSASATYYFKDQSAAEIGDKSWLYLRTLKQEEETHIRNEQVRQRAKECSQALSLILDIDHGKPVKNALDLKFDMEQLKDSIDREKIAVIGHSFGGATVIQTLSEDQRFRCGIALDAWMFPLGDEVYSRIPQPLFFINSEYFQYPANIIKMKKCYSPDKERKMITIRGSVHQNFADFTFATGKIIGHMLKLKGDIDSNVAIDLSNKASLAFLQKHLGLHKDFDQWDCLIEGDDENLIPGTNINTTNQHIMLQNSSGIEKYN
Assay: (3a) Lp-PLA2 human plasma Thio-PAF assay
Format: biochemical
Conditions: (3a) Thio-PAF assay, pooled human plasma; Examples 1-265 and 413-430 were tested here; read-out: pIC50 in the Lp-PLA2 human plasma assay (converted)
Where a name gives a salt, the structure may show the parent alone.
Would you kindly list IC50 for each of these compounds?

Problem: Given O=c1nc(OCc2ccc(F)cc2)cc2n1CC1CCCCN21 (stereo not shown) [Example E1, trifluoroacetate salt] , state its recorded IC50.
Result: ≤ 10 µM

Problem: Do the same for O=c1nc(OCc2cc(F)c(OC3CCCC(F)(F)C3)c(F)c2)cc2n1CC1CCCN21 (stereo not shown) [Example E92] please
Result: ≤ 10 µM

Problem: What would you report for Cc1ccc(Oc2c(F)cc(COc3cc4n(c(=O)n3)C[C@H]3COCCN43)cc2F)cn1 [Example E125] ?
Result: ≤ 0.1 µM

Problem: Consider next the compound O=c1nc(OCc2cc(F)c(Oc3ccnc(C(F)(F)F)c3)c(F)c2)cc2n1CC1OCCN21 (single isomer, unassigned) [Example E164] in the same way.
Result: ≤ 0.1 µM

Problem: Same question, O=c1nc(OCc2cc(F)c(Oc3ccc(C(F)(F)F)nc3)c(F)c2)cc2n1CC1CCCCN21 (stereo not shown) [Example E39] this time
Result: ≤ 0.1 µM

Problem: What would you report for CN1c2cc(OCc3cc(F)c(F)cc3F)nc(=O)n2CC12CCC2 [Example 429] ?
Result: ≤ 10 µM

Problem: Also, CCn1cc(Oc2c(F)cc(COc3cc4n(c(=O)n3)C[C@@H]3COCN43)cc2F)cn1 [Example E158] please.
Result: ≤ 10 µM
